All values here come from PubChem BioAssay (NCI).

Recorded growth for the following compounds
Test system: MOLT-4 leukemia
Assay: NCI-60 one-dose screen, 48 h (100 = growth as untreated, 0 = no growth, -100 = all killed)
Settings: 10 µM unless noted
This is part of a sample that, as a whole, favours compounds with a hit. Of some 83,000 tested, about 20% had one in any assay. The source made the active and inactive calls. Rule for the calls: active = growth percent below 10; inactive = the rest.

Past entries and their recorded results:
compound=Cc1oc2c(C(=O)N/N=C\c3ccc(O)cc3O)c[nH]c2c1C metric_name=growth measured="8.56% (active)"
compound=N#Cc1cc2[nH]c3ccc(OC(F)(F)F)cc3c2oc1=O metric_name=growth measured="84.5% (inactive)"

### Prompt # returns recorded growth (system: MOLT-4 leukemia) for Cc1cc(NCC(=O)Nc2ccc(-c3nc4ccccc4s3)cc2)no1
### Response 46.7% (inactive)

### Prompt Thanks! And COc1cc(N2CCC(N3CCN(C)CC3)CC2)ccc1Nc1ncnc(Nc2ccccc2S(=O)(=O)C(C)C)n1 ?
### Response 89.9% (inactive)

### Prompt Next: COc1c(OCCCN2CCOCC2)ccc2c3n(c(=NC(=O)c4cnc(N)nc4)nc12)CCN3
### Response 6.38% (active)

### Prompt Check N#Cc1c(-c2ccc(C(F)(F)F)cc2)c(F)c(NCCC2CCC(O)C2)n2c1nc1ccccc12 (stereo not drawn) too.
### Response 45.9% (inactive)

### Prompt Next compound: Cc1ccsc1C(NC(=O)c1ccccc1)c1cc(Cl)c2cccnc2c1O (stereo not drawn)
### Response 14.6% (inactive)

### Prompt // next record C[C@]12O[C@H](C[C@]1(O)CO)n1c3ccccc3c3c4c(c5c6ccccc6n2c5c31)CNC4=O
### Response -18% (active)

### Prompt Would you kindly repeat that for O=C1C=CC2(NN=C(c3ccccc3)N2c2ccccc2)c2cccc(O)c21 (stereo not drawn) ?
### Response 71.7% (inactive)

### Prompt Param item: COc1ccc2c(CCCC(c3ccccc3)c3ccccc3)c3[n+](cc2c1OC)CCc1cc2c(cc1-3)OCO2
### Response -20.5% (active)

### Prompt // same read-out, input: CN1CCN(CCCOc2cccc3nc(Nc4ccc(Cl)c(C(F)(F)F)c4)ccc23)CC1
### Response -57.6% (active)

### Prompt Another: CS(=O)(=O)N1CCN(Cc2cc3nc(-c4cccc5[nH]ncc45)nc(N4CCOCC4)c3s2)CC1
### Response 12.3% (inactive)

### Prompt Entry to check: COc1cc(-c2cc(-c3ccc(Nc4ccnc5cc(Cl)ccc45)cc3)nc(N3CCOCC3)n2)cc(OC)c1OC
### Response 19.6% (inactive)

---

System: HOP-62 NSCLC
Assay: NCI-60 one-dose screen, 48 h (100 = growth as untreated, 0 = no growth, -100 = all killed)
Settings: 10 µM unless noted
This is part of a sample that, as a whole, favours compounds with a hit. Of some 83,000 tested, about 20% had one in any assay.
Classification field: enter t for growth values not below 60%, f for values below it.

Worked examples, 3 molecules total:
molecule="CC1(C)NC(=O)c2[nH]c3c(Cl)c(Cl)ccc3c2C1C#N (stereo not given)" category=t
molecule=CC[n+]1c(/C=C/C=C2\N(C)c3ccccc3C2(C)C)sc2ccccc21 category=f
molecule=C[C@@H](NC(=O)c1ncnc(N)c1Cl)c1ncc(C(=O)Nc2cc(C(F)(F)F)c(Cl)cn2)s1 category=t

### Prompt Is reported growth greater than or equal to 60% here: N#Cc1c(-c2ccc(Cl)cc2)csc1NC(=O)Nc1cccc(C(F)(F)F)c1
### Response f

### Prompt Same thing, different molecule: CNC(=O)c1nn(C)c2c1C(C)(C)Cc1cnc(Nc3ccc(N4CCN(C)CC4)cc3)nc1-2
### Response f
